All figures here come from PubChem BioAssay.

Assay: TOR pathway GLN3 branch reporter MEP2-GFP changes – S. cerevisiae, multiplex flow cytometry, primary screen (AID 1867);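 also: median GFP channel fluorescence of barcode-gated MEP2-GFP cells measured by flow cytometry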
Details: S. cerevisiae MEP2-GFP strain, 3 h, at 10 µM, stronger effect = higher value, 100% means same as DMSO wells
Inconclusive results are not listed.
readout_label: GFP response vs DMSO (%)
Give the value in % but do not write % after it.

Study these solved cases before continuing.
>>> print(df.to_string())
                                   molecule  assay_value
0  O=C(O)CCCNc1ccc(S(=O)(=O)Nc2ccccc2C(=O)O)cc1C(=O)O         94.1
1  Cn1cc(C2N3CC4(C)CN2CC(C)(C3)C4=O)c2ccccc21 (stereo not given)          107
2  COc1ccccc1C(=O)Oc1ccc2c(c1)O/C(=C\c1ccncc1)C2=O          105
3  CCCCCCCCCC(=O)OCC(O)CO (stereo not given)          105
4       Cc1cc(C)nc(NS(=O)(=O)c2ccc(N)cc2)n1         98.3

### Prompt Hello, please tell me recorded GFP response vs DMSO for this one: Cc1ccc(CN2CCN(Cc3cn[nH]c3C3CCCCC3)CC2CCO)cc1 (stereo not given)
### Response 103

### Prompt Hello, please tell me recorded GFP response vs DMSO for this one: NNC(=O)c1ccncc1
### Response 113

### Prompt Hello, please tell me recorded GFP response vs DMSO for this one: Cc1ccc(S(=O)(=O)Oc2ccccc2/C=N/N=C(N)N)cc1
### Response 103

### Prompt Hello, please tell me recorded GFP response vs DMSO for this one: Cc1ccc(C(=O)COC(=O)c2cccc(N3C(=O)c4c(C)nc5ccccc5c4C3=O)c2)cc1C
### Response 102

### Prompt Hello, please tell me recorded GFP response vs DMSO for this one: O=C(c1cccnc1)N1N=C(C2CC2)CC1(O)C(F)(F)F (stereo not given)
### Response 104

---

// efflux inhibition (fraction of control) lookup, one value per entry
Assay: Nile Red efflux blockade in pump-expressing yeast – validation compound set, multiplex, phenotypic, pilot screen (AID 588506);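 also: Nile Red retained in cells so higher fluorescence means more efflux inhibition; 0 = negative control wells and 1 = enniatin B 25 µM full block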
Details: S. cerevisiae pump-expressing triplex, Nile Red efflux flow cytometry; at 10 µM; stronger effect = higher value; the pumps come from Candida albicans
A bare number is all that is needed in reply.

Study these solved cases before continuing.
                                   compound                            readout_label  assay_value
0              CN(C)C(=O)CCCCCCCCC(=O)N(C)C  efflux inhibition (fraction of control)         0.16
1     Cc1ccc(-c2nnc(-c3ccc4c(c3)OCO4)o2)cc1  efflux inhibition (fraction of control)         0.04
2           Cc1cccc2c1CC(C)(C)N/C2=C\C(N)=O  efflux inhibition (fraction of control)         0.04
3  CN1C(C(=O)Nc2ccccn2)=C(O)c2sccc2S1(=O)=O  efflux inhibition (fraction of control)        0.035
4    O=C(NCc1ccc(N2CCCC2=O)cc1)c1cccc(Cl)c1  efflux inhibition (fraction of control)        -0.14
5                CCN(CC)CCNC(=O)c1ccc(N)cc1  efflux inhibition (fraction of control)        -0.14

Next:
### Prompt Hello, please tell me recorded efflux inhibition (fraction of control) for this one: CC(=O)c1c(C)c(C)c2n1CCn1c(C)ccc1-2
### Response -0.09

---

Molecular target: Integrin beta-1 (Homo sapiens) + Integrin alpha-4 (Homo sapiens) (UniProt P13612+P05556)
Sequence (P05556 whole entry, looked up): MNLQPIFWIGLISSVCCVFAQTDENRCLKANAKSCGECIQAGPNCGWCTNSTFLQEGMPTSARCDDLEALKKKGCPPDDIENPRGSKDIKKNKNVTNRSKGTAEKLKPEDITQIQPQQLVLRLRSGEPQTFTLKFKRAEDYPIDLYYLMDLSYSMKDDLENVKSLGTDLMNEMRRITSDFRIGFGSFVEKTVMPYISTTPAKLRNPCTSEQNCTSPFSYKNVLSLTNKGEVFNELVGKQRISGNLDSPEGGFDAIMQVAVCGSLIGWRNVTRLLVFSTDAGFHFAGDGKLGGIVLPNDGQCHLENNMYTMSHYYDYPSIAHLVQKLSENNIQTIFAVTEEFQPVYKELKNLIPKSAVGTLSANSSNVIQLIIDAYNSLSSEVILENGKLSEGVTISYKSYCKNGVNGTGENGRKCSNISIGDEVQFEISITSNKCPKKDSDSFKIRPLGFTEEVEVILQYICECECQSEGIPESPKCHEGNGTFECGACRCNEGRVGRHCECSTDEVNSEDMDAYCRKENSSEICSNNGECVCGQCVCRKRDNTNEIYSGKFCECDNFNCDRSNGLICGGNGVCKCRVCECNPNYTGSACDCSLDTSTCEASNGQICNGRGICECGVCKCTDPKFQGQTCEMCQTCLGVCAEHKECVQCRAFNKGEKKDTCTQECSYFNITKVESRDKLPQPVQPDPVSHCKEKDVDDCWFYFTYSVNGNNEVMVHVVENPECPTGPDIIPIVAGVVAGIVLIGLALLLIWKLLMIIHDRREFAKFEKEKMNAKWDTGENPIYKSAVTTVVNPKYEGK
Sequence (P13612 whole entry, looked up): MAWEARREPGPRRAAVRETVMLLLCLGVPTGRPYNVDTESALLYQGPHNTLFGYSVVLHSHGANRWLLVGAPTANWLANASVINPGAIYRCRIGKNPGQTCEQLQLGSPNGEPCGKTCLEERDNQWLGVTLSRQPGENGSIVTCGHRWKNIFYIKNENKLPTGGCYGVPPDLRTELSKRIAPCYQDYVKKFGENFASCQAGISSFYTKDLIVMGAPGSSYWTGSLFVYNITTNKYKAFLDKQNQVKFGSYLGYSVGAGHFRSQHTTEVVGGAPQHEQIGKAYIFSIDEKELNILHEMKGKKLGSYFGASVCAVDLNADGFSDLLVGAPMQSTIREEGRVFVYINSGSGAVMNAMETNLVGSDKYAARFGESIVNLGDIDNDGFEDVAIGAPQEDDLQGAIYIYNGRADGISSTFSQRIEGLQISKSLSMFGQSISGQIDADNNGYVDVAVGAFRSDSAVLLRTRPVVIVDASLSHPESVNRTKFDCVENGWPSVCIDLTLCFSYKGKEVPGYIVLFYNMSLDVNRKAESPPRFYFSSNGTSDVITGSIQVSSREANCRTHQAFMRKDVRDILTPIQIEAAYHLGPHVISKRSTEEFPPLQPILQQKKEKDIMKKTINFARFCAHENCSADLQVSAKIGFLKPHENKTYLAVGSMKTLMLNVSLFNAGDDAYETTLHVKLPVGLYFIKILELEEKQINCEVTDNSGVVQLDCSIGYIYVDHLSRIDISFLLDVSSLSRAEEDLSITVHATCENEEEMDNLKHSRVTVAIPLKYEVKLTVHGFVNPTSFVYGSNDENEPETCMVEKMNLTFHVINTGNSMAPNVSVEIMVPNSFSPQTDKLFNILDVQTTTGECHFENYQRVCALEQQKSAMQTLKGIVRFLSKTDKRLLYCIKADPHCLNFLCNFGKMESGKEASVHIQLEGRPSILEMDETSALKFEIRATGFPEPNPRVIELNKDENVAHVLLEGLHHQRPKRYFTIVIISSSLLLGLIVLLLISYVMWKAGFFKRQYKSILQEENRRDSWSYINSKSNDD
Assay: alpha4beta1 integrin LIBS antibody binding reduction – U937 cells, HUTS-21 mAb, flow cytometry, validation set, VLA-4 allosteric modulator project, pilot screen (AID 2674);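 also: antibody binding induced by the VLA-4 ligand LDV present at three times its Kd; 0% = LDV ligand with antibody and no compound and 100% = antibody without LDV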
Settings: HUTS-21 LIBS mAb binding, at 6.7 µM, binding induced by LDV ligand
Calls of active or inactive are those of the source.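 How the source made its calls: active means inhibition above 50%, about 3 SD of the validation set; inactive means the rest.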
Lab note: assign the record to one of label 1 (active), label 0 (inactive)

// below: answered molecules
>>> df
                                   molecule                               test_target  label_class
0  O=C(c1ccco1)N(CCC(c1ccccc1)c1ccco1)Cc1ccco1 (centres undefined)  Integrin beta-1 (Homo sapiens) + Integrin alpha-4 (Homo sapiens) (UniProt P13612+P05556)      label 0
1    CN(C)CCCN1c2ccccc2Sc2ccc(C(F)(F)F)cc21  Integrin beta-1 (Homo sapiens) + Integrin alpha-4 (Homo sapiens) (UniProt P13612+P05556)      label 1
2                 CCNC(=O)c1c(N)sc2c1CCCCC2  Integrin beta-1 (Homo sapiens) + Integrin alpha-4 (Homo sapiens) (UniProt P13612+P05556)      label 0
3  Cc1ccc(CN2CCN(Cc3cn[nH]c3C3CCCCC3)CC2CCO)cc1 (centres undefined)  Integrin beta-1 (Homo sapiens) + Integrin alpha-4 (Homo sapiens) (UniProt P13612+P05556)      label 0
4  C[C@]12CCC(=O)C=C1CC[C@@H]1[C@@H]2[C@@H](O)C[C@@]2(C)[C@H]1CC[C@]2(O)C(=O)CO  Integrin beta-1 (Homo sapiens) + Integrin alpha-4 (Homo sapiens) (UniProt P13612+P05556)      label 0
5  COc1cccc(C2CC(=O)C3=C(C2)Nc2ccccc2N(C(=O)CCC(=O)O)C3c2ccc(F)cc2)c1 (centres undefined)  Integrin beta-1 (Homo sapiens) + Integrin alpha-4 (Homo sapiens) (UniProt P13612+P05556)      label 0
6  CC(NCCc1ccc(O)cc1)C(O)c1ccc(O)cc1 (centres undefined)  Integrin beta-1 (Homo sapiens) + Integrin alpha-4 (Homo sapiens) (UniProt P13612+P05556)      label 0
7  O=C(OCC1CCCN2CCCCC12)c1ccc2c(c1)OCO2 (centres undefined)  Integrin beta-1 (Homo sapiens) + Integrin alpha-4 (Homo sapiens) (UniProt P13612+P05556)      label 0

### Prompt Recorded test outcome, item CC1CCCC(C)N1NC(=O)c1ccc(Cl)c(S(N)(=O)=O)c1 (centres undefined)
### Response label 0

### Prompt Recorded test outcome, item O=C(CCC(=O)c1cccs1)c1cccs1
### Response label 0

### Prompt Recorded test outcome, item COc1ccc(CC(=O)Nc2cccc(C(=O)Nc3ccccc3C(=O)O)c2)cc1OC
### Response label 0

### Prompt Recorded test outcome, item c1ccc(-c2ccccn2)nc1
### Response label 0

### Prompt Recorded test outcome, item COc1cc2c(cc1OC)C(c1ccccc1)=NCC2
### Response label 0

### Prompt Recorded test outcome, item COc1ccc(NC(=O)C2OC3OC(C)(C)OC3C3OC(C)(C)OC23)cc1 (centres undefined)
### Response label 0

---

Test system: anti-desmoglein-3 scFv antibody binding to human DSG3
Test: blockers of pathogenic pemphigus antibody–desmoglein-3 binding – biochemical, validation compound set, bead-based, flow cytometry, pilot screen (AID 588368);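 also: signal is the median channel fluorescence of bead-bound GFP antibody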
Settings: Protein G beads, DSG3-Fc, scFv-GFP binding, at 10 µM, stronger effect = lower value
// binding (% of control) lookup, one value per entry
Give the value in % but do not write % after it.

Study these solved cases before continuing.
                                   compound  value_units  assay_value
0  C[N+]1(C2CCC3CCCC2C3O)CCCCC1 (configuration not stated)            %         99.3
1     Cc1coc2cc3oc(=O)c(CCC(=O)O)c(C)c3cc12            %          106

### Prompt Hello, please tell me recorded binding (% of control) for this one: CC1(C)Oc2ccc(C#N)cc2[C@@H](N2CCCC2=O)[C@@H]1O
### Response 100

### Prompt Hello, please tell me recorded binding (% of control) for this one: Cc1nnc(NS(=O)(=O)c2ccc(N)cc2)s1
### Response 100

### Prompt Hello, please tell me recorded binding (% of control) for this one: COc1ccc(C(=O)CC2OC(=O)c3c2ccc(OC)c3OC)cc1 (configuration not stated)
### Response 95.8

### Prompt Hello, please tell me recorded binding (% of control) for this one: CCCCN1C[C@H](O)[C@@H](O)[C@H](O)[C@H]1CO
### Response 104

### Prompt Hello, please tell me recorded binding (% of control) for this one: O=C(O)c1ccccc1C(=O)OCCCCOC(=O)c1ccccc1C(=O)O
### Response 92.7

---

// fluorescence, percent of control (lower = inhibition) lookup, one value per entry
Molecular target: Cell division control protein 42 homolog (Homo sapiens)
Experiment: inhibition of fluorescent GTP binding to wildtype Cdc42 – biochemical, multiplex bead flow cytometry, Bodipy-FL-GTP, dose response (AID 1334)
Conditions: bead-based flow cytometry, Bodipy-FL-GTP binding to GST-Cdc42; at 100 µM (top of the series) unless noted
Entries with a potency or affinity are not part of this list.
Give the value in % but do not write % after it.

### Prompt Hello, please tell me recorded fluorescence, percent of control (lower = inhibition) for this one: Cc1ccccc1OCCn1c(C)c(C(=O)O)c2ccccc21
### Response 61.5

### Prompt Hello, please tell me recorded fluorescence, percent of control (lower = inhibition) for this one: Cc1n[nH]c(=S)c2nn(-c3cccc(Cl)c3)c(C)c12
### Response 55.8

### Prompt Hello, please tell me recorded fluorescence, percent of control (lower = inhibition) for this one: Cc1ccccc1-n1c(SCc2c(C)noc2C)nnc1-c1cccnc1
### Response 104

### Prompt Hello, please tell me recorded fluorescence, percent of control (lower = inhibition) for this one: CC(=O)Nc1ccc(NC(=O)CCn2nnc3ccccc32)cc1
### Response 35.7

### Prompt Hello, please tell me recorded fluorescence, percent of control (lower = inhibition) for this one: Cc1ccc(NC(=O)C2=C(c3ccccc3)S(=O)(=O)CCS2(=O)=O)cc1
### Response 22.2

### Prompt Hello, please tell me recorded fluorescence, percent of control (lower = inhibition) for this one: O=C(O)c1cn(CCOc2ccccc2Cl)c2ccccc12
### Response 99.8

### Prompt Hello, please tell me recorded fluorescence, percent of control (lower = inhibition) for this one: C=CCn1c(COc2ccc(F)cc2)nnc1SCC(=O)c1c[nH]c2c(CC)cccc12
### Response 50.5
